Reported koff values follow for various binders
MEASURED_ON: T1, human PXR-GST (Invitrogen) (human) (UniProt O75469)
T1 sequence: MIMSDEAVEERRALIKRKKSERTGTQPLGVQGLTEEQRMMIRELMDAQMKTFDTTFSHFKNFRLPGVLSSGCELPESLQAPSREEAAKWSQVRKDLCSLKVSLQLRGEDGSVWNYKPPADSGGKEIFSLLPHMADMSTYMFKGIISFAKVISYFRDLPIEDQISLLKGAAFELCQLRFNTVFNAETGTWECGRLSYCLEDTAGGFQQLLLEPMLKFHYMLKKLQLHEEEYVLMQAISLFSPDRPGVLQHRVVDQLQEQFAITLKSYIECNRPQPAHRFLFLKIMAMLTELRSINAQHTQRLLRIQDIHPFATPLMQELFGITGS
ASSAY_EXPLANATION: SPR (Biacore T100), Adnectin series over human PXR-GST captured by anti-GST antibody
// note: answer is a bare numeric in s⁻¹

These recorded examples may help you get a feel for the data.
# BINDER, koff [s⁻¹]
rows = [
    ("Adnectin-7 (designed binder) MGVSDVPRDLEVVTATPTSLLISWDGPKYYVKYYRITYGETGGNSPVQEFTVPRTDHTATISGLKPGVDYTITVYAVKGQYGPYYGSRPISINYRTEIDKPSQHHHHHH", "8.82e-05"),
    ("Adnectin-8 (designed binder) MGVSDVPRDLEVVAATPTSLLISWSQPGRYVKYYRITYGETGGNSPVQEFTVPNDTYTATISGLKPGVDYTITVYAVYGKYGPYYGYDPISINYRTEIDKPSQHHHHHH", 0.000182),
    ("Adnectin-2 (designed binder) MASTSGVSDVPRDLEVVAATPTSLLISWDAPAVTVNNYRITYQPLLQGSSIQHFDVPGSKSTATISGLKPGVGYQITVYASTYTHSKAYYSLPISIYYRTEGSGSHHHHHH", 0.00458),
]

Now consider a different binder.
Which value of koff has been reported for Adnectin-5 (designed binder) MGVSDVPRDLEVVAATPTSLLISWKYPYETISYYRITYGETGGNSPVQEFTVPYYRSTATISGLKPGVDYTITVYAVEASAPYSDGGSPISINYRTEIDKPSQHHHHHH in the records?
0.0027
